- ASSAY NAME: soluble fraction after stress (log2 fold change); higher = more stays soluble; pooled small domains, quantitative proteomics
- TEST PARAMETERS: stress: 50 degC
Label label 0 if soluble fraction (log2) falls below -0.4; label label 1 in every other case.

Answered examples (6):
seq_string=HMVAGHLQEKNGYFYIVLNYTNHEGKRKSKWITTGLTVKGNKKRAQDLLQEARKTFVPDIPT group_label="label 0"
seq_string=HMDEFEEGVITYFNSEKGFGFIRESKTKQSVFVHSKQLSSPVQLNDKVKFIVNKGLKGLEATEVSVI group_label="label 1"
seq_string=HMVKDLEIETIRLNNLLASDAEEVLKSLGGAKPTYKAVAVPGSNSLVIEGTKADLIKLKSIINALEDGS group_label="label 1"
seq_string=HMDLDLNIDNYNFDDLLNLFGLKMKFSEDDLKKAKRSVLMTHPDKSGLDKQYFMFFTKAYKMLSQIYYFR group_label="label 1"
seq_string=HMNQTPQISYSQFIADVRSGQIKDVNIDSDNRTIVGHKFSGEEFTTFSPGDNKLVDELLNYNVEIKTSP group_label="label 1"
seq_string=HMYHNKFADLAGFIAFNEKNEEIFTFGKYKGQNVKEVFQRDIGYYGWLQNADFPLYTKKVFTAIQLRSR group_label="label 0"

Let's switch to this sequence now.
// query Does the reported soluble fraction (log2) for HMGEMTDFETLRDMYLTGQIWNIDDLIEANGVEGRIVRRGTNYIAFNDRDGKVHKAWLHEVTINE fall at or above the -0.4 mark?
// result label 0

* * *

Listing: soluble fraction (log2) of selected sequences
- ASSAY NAME: soluble fraction after stress (log2 fold change); higher = more stays soluble; pooled small domains, quantitative proteomics
- TEST PARAMETERS: stress: 50 degC
Quick one: just the number, no unit, thanks!

seq_string=HMKKVKVPNVVGMSLKEARDALSAVNIAVNQVAGSVEDKSVVTEQSLKAGDEVDEGSSLNLTTEYK property_measured="soluble fraction (log2)" number=-0.156
seq_string=HMQDYISAEEAKSAALSASQVDSAGAAFSAAELGEKNGIPYYEVAFTADGLEYRYAIDAQTGTVIESSSSG property_measured="soluble fraction (log2)" number=0.0366
seq_string=HMEVDDEAIYQGHEPSIRLHRLLKDVGYNSALLPSVVTQIFKDFPGIELAKALPIAMQLLNED property_measured="soluble fraction (log2)" number=-0.403

// sample HMIDRPLTLVEDYERFAGELAKITLRFMLDGRKRFNGRLAGFDEDGKIVLETSFGRFAFSFDEIDSARI , its soluble fraction (log2) was -2.68

The sequence listed as HMKTEVNITPGIIDWIERYVQTDKISSSMTEDFQHWKSGTKKPTFNQVEAFSKAINVPLGYFFLKTPPAE shows soluble fraction (log2) equal to -0.302

* * *

- ASSAY NAME: soluble fraction after stress (log2 fold change); higher = more stays soluble; pooled small domains, quantitative proteomics
- TEST PARAMETERS: stress: 50 degC
Below, each entry is listed alongside its reported soluble fraction (log2).
Output: the number by itself.

Sample answers from the record:
seq_string=HMSADLVYLRKRLQDAIAQLPENMRTAYTLFQIANRSIREISELTGASESLVKVRIHRAKGKLQKQLEDLK property_measured="soluble fraction (log2)" number=-1.33
seq_string=HMNTEKRVFAGVENTRLDHFLVEQFPEFSRTFIQQMIKSANVIVNGNIEKASYKLREGDTIMTRPM property_measured="soluble fraction (log2)" number=-0.253
seq_string=HMLGERIKQIRKQKKMTQTDVATGIITKSMLSMIENGKATPSLPALQAIARRLQVTVEELML property_measured="soluble fraction (log2)" number=-0.512

Looking up HMGRMSLDEAKAVILPIGEHKGHTMGEVLAIKPGLIDFYASQKFNSGKYPYLKEAAQVILENQG , I see its soluble fraction (log2) listed as -0.109

* * *

The sequences listed here are annotated with their soluble fraction (log2).
- ASSAY NAME: soluble fraction after stress (log2 fold change); higher = more stays soluble; pooled small domains, quantitative proteomics
- TEST PARAMETERS: stress: 50 degC
Just the number, please, no unit attached.

seq_string=HMKQQNFADLAGRFVFNADNEVVFNFGKHKNVPVATVLKNEPGYYGWMMGGDFPLFTKKILKQIKEA number=-0.847
seq_string=HMNNSDIDITVGKNSISINNPNRTNIIIYSSNGMLIDSSKNASYKRNLPSGIYIVKSGSSTHKVIV number=-0.148
seq_string=HMILVLKPGAPEDLKNELIHDIEKMGLRVHVSVGEGTTIIGLIGDTSKISKYTFSSYEIVSNVLRVT number=-0.0106

Now examine the next entry.
Given item HMAEVPDLRNKTQQEAEAELTNHNLKLGNVTEEYSATVEAGRVISQSTSYGTKVLEGSSVDITISKGPEPT , the value recorded as its soluble fraction (log2) is -0.0123

* * *

soluble fraction (log2) reference
- ASSAY NAME: soluble fraction after stress (log2 fold change); higher = more stays soluble; pooled small domains, quantitative proteomics
- TEST PARAMETERS: stress: 50 degC

seq_string=HMKDITMPNVYGLTLEMAEQTLKQSELSIFKAMKINSDTVEEGKVIYTDPKANSIVSGDQEITIYVSDGP property_measured="soluble fraction (log2)" result=0.0645

The sequence listed as HMDEQKNREIALIENIQREDLNPYEKALGIRNLMDKYGLTQEEVSKRIGKSRSAVSNTVRILNLAPDVL shows soluble fraction (log2) equal to 0.0391

HMPLLKIGAQGHDVRVVQEALQRAGYAIEGVTGIFDEATREAVLAFQRDQQLTESGTVDRATWHALRR has a reported soluble fraction (log2) of 0.134

The recorded soluble fraction (log2) for HMSGEMGIIVAKRLPIRSEPDELATRAFVLKAGTRVKIVKHLNGWLEIVHDGKAGYVQDLEVYVRVIG is -0.524

* * *

- ASSAY NAME: soluble fraction after stress (log2 fold change); higher = more stays soluble; pooled small domains, quantitative proteomics
- TEST PARAMETERS: stress: 50 degC
Measured soluble fraction (log2), listed per entry for reference.
Give a plain numeric answer without units written out.

For orientation, consider the following solved cases.
seq_string=HMRPEKLVLKALRGAHGPLSAEEVAGRIEADGGAGLDVARVEHVLGQLERSGTVAALGGGKYLALR property_measured="soluble fraction (log2)" number=0.281
seq_string=HMHDHKTRLQELAAQRFGSAPSYLLTADGPAHDRRFHASVEVGGRSFGPGTGKSKKRAEQVAAHIAWDALS property_measured="soluble fraction (log2)" number=0.394
seq_string=HMHYKLIIFENHTKSTSLDITPEQARQILGVTDYTPEQYEILAEITNRPASYFMDDLVDYYVD property_measured="soluble fraction (log2)" number=-2.39

Please examine the following record next.
Memo: HMGDYDHYVVKVEDTLLNWLVTNVTTMSRNKLKDILAGQGIKVNGKITTKYDYPLTPGMKIAISKTKR , reported soluble fraction (log2): -0.275

* * *

- ASSAY NAME: soluble fraction after stress (log2 fold change); higher = more stays soluble; pooled small domains, quantitative proteomics
- TEST PARAMETERS: stress: 50 degC
Returns one of Criterion met or Criterion not met; Criterion met when soluble fraction (log2) is >= -0.03.

Previously resolved entries follow.
seq_string=HMEIEYFDDEELDAYKGRKSDSYTDEEAAQFAEVLYTMRPSEVKDWTASLTLRGISMPDQIKDEAIMLME group_label="Criterion not met"
seq_string=HMQDKIWVVDETQLYPKLIEAMSEGKAVIHDGVAYWAEGSGKTGVIQHLPFKETTVQNVEEAIKLAQ group_label="Criterion met"

// query Kindly determine if soluble fraction (log2) recorded for HMENEIVMPVQINGKKRGDLTIARDADQASIQKAVLELDFVKAALNGGSPKKVIVVPQRIVNVV is above or exactly -0.03.
// result Criterion met

// query Hi, just wondering whether HMKERVSWDERLERFAKHITENESLPYPSSKEYAWFEENKALYDAGELEPVRAQSFAFLLKIMRRMNL shows soluble fraction (log2) of -0.03 or higher.
// result Criterion not met

// query soluble fraction (log2) >= -0.03 for HMGAIVTGTVVEIRSDVVIVNAGLKSEGVVPIEQFRNEAGELEVSVGDEVKVALDALEDGFGETRLS ?
// result Criterion not met

// query Quick check: does HMPYLVNGFILEVQSDDNNPVGTLKRRYAVAKNKQGVILLEGEKSFSSNDQILINELKFYIQSNDLKA have soluble fraction (log2) greater than or equal to -0.03?
// result Criterion not met

// query # check: soluble fraction (log2) of HMVPSSHNIAQKVKQIKINDLWLDVRERYIYLKNLYLSHPLEKDHPSFIVYVEAVNQIYNQYF is greater than or equal to -0.03
// result Criterion met

// query # check: soluble fraction (log2) of HMDLGTHMRLIVPTGMRVDHIVYESNGKNISVDHDRSISVRWNGEVVSIDVSPLPSRPDFDVLIYMSPK is greater than or equal to -0.03
// result Criterion met

// query Is reported soluble fraction (log2) greater than or equal to -0.03 here: HMEKIRIQKYLSERGVMSRRAADSALAEGRIAVNGVTARPGDKIDPSSDTLTIDGRIVTTGTAP
// result Criterion met

// query // inclusive: soluble fraction (log2) at least -0.03? input: HMAPLAVIFPEPWRGMIAPEKLEGLTQALSLNPRPGYQHDPTRRYGVSLDGLDVRFTIDGDTLTVVEVVT
// result Criterion not met
